The reported numbers originate from ChEMBL document CHEMBL4414643.

Assay: Tmax in anesthetized C57BL/6J mouse brain at 10 mg/kg, ip administered as single dose measured upto 240 mins in presence of tween-80 by LC-MS/MS analysis
Assay type: ADME, organism-based
property.measured: Tmax (min)
One number for each entry, in min.

GET /values?readout=Tmax&item= C=C(C)[C@@H]1CCC(C)=C[C@H]1c1c(O)cc(CCCCC)c(C(=O)O)c1O
30

====

Assay: Tmax in anesthetized C57BL/6J mouse plasma at 5 mg/kg, ip administered as single dose measured upto 240 mins by LC-MS/MS analysis
Format: ADME, organism-based
Give measured Tmax for each item. Keep answers brief.
Give bare numbers, in min.

1) C=C(C)[C@@H]1CCC(C)=C[C@H]1c1c(O)cc(CCC)c(C(=O)O)c1O; 15

I would be grateful if you could share the reported Tmax for CCCCCc1cc2c(c(O)c1C(=O)O)C=CC(C)(CCC=C(C)C)O2 (configuration not stated) .
30

====

Give measured half-life for each item. Keep answers brief.
Assay: Half life in anesthetized C57BL/6J mouse plasma at 5 mg/kg, ip administered as single dose measured upto 240 mins by LC-MS/MS analysis
Assay type: ADME, organism-based

1) C=C(C)[C@@H]1CCC(C)=C[C@H]1c1c(O)cc(CCC)c(C(=O)O)c1O; 49 min

Let us examine a further case.
What measured half-life goes with CCCCCc1cc2c(c(O)c1C(=O)O)C=CC(C)(CCC=C(C)C)O2 (configuration not stated) ?
24 min

====

Assay: AUC in anesthetized C57BL/6J mouse brain at 5 mg/kg, ip administered as single dose measured upto 240 mins by LC-MS/MS analysis
Format: ADME, organism-based
Design: time < 4 hr, dose 5 mg/kg, route intraperitoneal
property.measured: AUC at 4 h (ng·h/mL)
One number for each entry, in ng·h/mL.

I am curious: what AUC at 4 h value has been reported for C=C(C)[C@@H]1CCC(C)=C[C@H]1c1c(O)cc(CCC)c(C(=O)O)c1O ?
550

====

Test: Ratio of drug level in anesthetized C57BL/6J mouse brain to plasma at 5 mg/kg, ip administered as single dose measured upto 240 mins in presence of tween-80 by LC-MS/MS analysis
Format: ADME, organism-based
Conditions: read-out: BPR
property.measured: Kp at 4 h
Answers are plain numbers.

What value of measured Kp at 4 h is listed for C=C(C)[C@@H]1CCC(C)=C[C@H]1c1c(O)cc(CCCCC)c(C(=O)O)c1O ?
1.9

====

Experiment: Half life in anesthetized C57BL/6J mouse brain at 10 mg/kg, ip administered as single dose measured upto 240 mins in presence of vegetable oil by LC-MS/MS analysis
Assay type: ADME, organism-based
property.measured: half-life (min)
Give bare numbers, in min.

Entry C=C(C)[C@@H]1CCC(C)=C[C@H]1c1c(O)cc(CCCCC)c(C(=O)O)c1O [CANNABIDIOLIC ACID] has what half-life?
41

====

Experiment: Partition coefficient, log P of compound
Type: physicochemical
Conditions: octanol/water
Task for the reader: assign each of the following compounds its reported logP.
One number for each entry.

1. CCCCCc1cc2c(c(O)c1C(=O)O)C=CC(C)(CCC=C(C)C)O2 (stereo unspecified); 6.91
2. C=C(C)[C@@H]1CCC(C)=C[C@H]1c1c(O)cc(CCC)c(C(=O)O)c1O; 5.94
3. CCCCCc1cc(O)c(C/C=C(\C)CCC=C(C)C)c(O)c1C(=O)O; 7.35
4. CCCCCc1cc2c(c(O)c1C(=O)O)[C@@H]1C=C(C)CC[C@H]1C(C)(C)O2 [DELTA9-TETRAHYDROCANNABINOLIC ACID A]; 6.25

Would you be so kind as to report logP for each listed record?
1. C=C(C)[C@@H]1CCC(C)=C[C@H]1c1c(O)cc(CCCCC)c(C(=O)O)c1O
2. CCCc1cc(O)c(C/C=C(\C)CCC=C(C)C)c(O)c1C(=O)O

1. 6.63
2. 6.46
